System: Candida albicans
Assay: Antifungal activity against Candida albicans 7535 after 24 hrs by two-fold serial dilution method
Type: functional
Conditions: Candida albicans, 7535, 24 h
# MIC listing for each entry below
Mention the unit after the number when you answer.

                                   compound  reported_endpoint    result
0  CN(C)C1=NC(c2ccc(/C=C/C(=O)c3ccc(F)cc3)cc2)N=C(N)N1 (stereo not drawn)                MIC  32 µg/mL
1  CN(C)C1=NC(c2ccc3cc(OCc4ccc(Br)cc4)ccc3c2)N=C(N)N1 (stereo not drawn)                MIC   1 µg/mL
2  CN(C)C1=NC(c2ccc3cc(OCc4ccccc4)ccc3c2)N=C(N)N1 (stereo not drawn)                MIC   8 µg/mL
3  Cc1ccc(C(=O)/C=C/c2ccc(C3N=C(N)NC(N(C)C)=N3)cc2)c(C)c1 (stereo not drawn)                MIC  32 µg/mL
4  CN(C)C1=NC(c2ccc3cc(OCc4ccccc4F)ccc3c2)N=C(N)N1 (stereo not drawn)                MIC   4 µg/mL

Please supply the value of reported MIC for the item CN(C)C1=NC(c2ccc(/C=C/C(=O)c3ccc(Br)cc3)cc2)N=C(N)N1 (stereo not drawn) 16 µg/mL

Note down MIC recorded for CN(C)C1=NC(c2ccc(/C=C/C(=O)c3ccccc3)cc2)N=C(N)N1 (stereo not drawn) 32 µg/mL

Consider the compound CN(C)C1=NC(c2ccc(/C=C/C(=O)c3ccccc3Br)cc2)N=C(N)N1 (stereo not drawn) . State its measured MIC. 32 µg/mL
